Reference source: patent US20190161555A1

In this section we review reported relative MFI (fold over isotype control) values for a set of binders.
SUBJECT OF TEST: Chimeric OX40 construct 1549 (human; mouse) (UniProt P47741)
MEASUREMENT NOTES: flow cytometry, 293-F cells transfected with the construct
Reply with just the number.

Completed entries (count: 3):
1166/1167 (antibody, V domains shown) VH: EVQLLESGGGLVQPGGSLRLSCAASGFTFGGYYMSWVRQAPGKGLEWVSAISGSGGSTYYADSVKGRFTISRDNSKNTLYLQMNSLRAEDTAVYYCARYDYASMDYWGQGTLVTVSS VL: DIQMTQSPSSLSASVGDRVTITCRASQSISSYLNWYQQKPGKAPKLLIYAASSLQSGVPSRFSGSGSGTDFTLTISSLQPEDFATYYCQQYYWYGLSTFGQGTKLEIK :: 11.3
1524/1525 (antibody, V domains shown) VH: EVQLLESGGGLVQPGGSLRLSCAASGFTFGSYYMGWVRQAPGKGLEWVSSIGSYYGYTYYADSVKGRFTISRDNSKNTLYLQMNSLRAEDTAVYYCARHDYGALDYWGQGTLVTVSS VL: DIQMTQSPSSLSASVGDRVTITCRASQSISSYLNWYQQKPGKAPKLLIYAASSLQSGVPSRFSGSGSGTDFTLTISSLQPEDFATYYCQQYGPSGLFTFGQGTKLEIK :: 11.2
1514/1515 (antibody, V domains shown) VH: EVQLLESGGGLVQPGGSLRLSCAASGFTFGYYYMSWVRQAPGKGLEWVSGISSYGSYTYYADSVKGRFTISRDNSKNTLYLQMNSLRAEDTAVYYCARSGYSNWANSFDYWGQGTLVTVSS VL: DIQMTQSPSSLSASVGDRVTITCRASQSISSYLNWYQQKPGKAPKLLIYAASSLQSGVPSRFSGSGSGTDFTLTISSLQPEDFATYYCQQGDYTLFTFGQGTKLEIK :: 10.6

Query: Item under review: 1526/1527 (antibody, V domains shown) VH: EVQLLESGGGLVQPGGSLRLSCAASGFTFSGYSMYWVRQAPGKGLEWVSGIGYSGYGTYYADSVKGRFTISRDNSKNTLYLQMNSLRAEDTAVYYCARYYFHDYAAYSLDYWGQGTLVTVSS VL: DIQMTQSPSSLSASVGDRVTITCRASQSISSYLNWYQQKPGKAPKLLIYAASSLQSGVPSRFSGSGSGTDFTLTISSLQPEDFATYYCQQYGSDSLLTFGQGTKLEIK . Reported relative MFI (fold over isotype control)?
Reply: 8.5
